measurement.type: melting point (°C)
One number for each entry, in °C.

Worked cases, answers included:
{"columns": ["compound", "melting point [°C]"],
 "data": [
  ["Cc1ccc(/C=C2/C=C(CC(C)C)OC2=O)o1", 88],
  ["CC12CCc3c(ccc4cc(O)ccc34)C1(C)CCC2=O (centres undefined)", 261],
  ["CSCc1ccccc1", -28],
  ["CC(C(=O)O)c1ccc(C(=O)c2cccs2)cc1 (centres undefined)", 124],
  ["CCC1CC(N)(C(=O)O)CC(C)(C)N1O (centres undefined)", 230]
]}

For every listed record, write down its melting point.
1. O=C1CCOc2ccc(Cl)cc21
2. O=[N+]([O-])c1cccc(F)c1CBr
3. CNC(=O)Oc1ccc(C)c(C)c1Cl
4. CCCCCCCCCCCCCCCCO
5. CC(C)(O)CCSc1ccc(S(N)(=O)=O)cc1
6. CCC(C)(C)C(=O)O

Return:
102
52
124
51.1
140
-14

----------
measurement.type: melting point

Below, 3 compounds whose answers are already recorded.
{"columns": ["compound", "result"],
 "data": [
  ["O=C(NCCCl)c1ccccc1", "103 °C"],
  ["C=CC1(OC(C)=O)CCC2(C)C(CCC3C2CCC2(C)C3CCC23OCCO3)C1 (stereo unspecified)", "101 to 109 °C"],
  ["O=c1[nH]c2scc(-c3ccccc3)c2c(=O)n1-c1ccccc1", "305 to 308 °C"]
]}

Hey, can you go through the list below and give me melting point for every item?
1. O=P(N1CCOCC1)(N1CCOCC1)N1CCOCC1
2. Oc1cccc2c(O)nccc12
3. O=C1c2ccccc2N(C(=O)CN2CCOCC2)CN1c1ccccc1
4. O=C(O)c1cc2ccccc2c2ccccc12

Return:
190 °C
270 to 275 °C
136 °C
253 °C

----------
Please provide measured melting point for the entries that follow.
Answers are plain numbers, in °C.

Study these solved cases before continuing.
{"columns": ["compound", "numeric.value"],
 "data": [
  ["NC(=S)c1ccc(C2SCCS2)cc1", 174],
  ["O=C(O)Cc1ccsc1", 79],
  ["Cn1c(=O)c2c(ncn2CN2CCOCC2)n(C)c1=O", 177],
  ["CC1=NN(c2ccccc2)C(=O)/C1=N\\Nc1ccc(C(=O)O)cc1", 313],
  ["CCCCCCCCC=CCCCCCCCC(=O)OCCCC", -26.5]
]}

// input: 7 compounds below; output: melting point for each
1. O=C(O)c1cc([N+](=O)[O-])cc(S(=O)(=O)Nc2ccccc2)c1
2. Cc1cc([N+](=O)[O-])c(N)c([N+](=O)[O-])c1
3. CCOc1ccc(NS(=O)(=O)c2ccc(N)cc2)nn1
4. O=c1ccn(C2CCC(CO)O2)c(=O)[nH]1 (stereo unspecified)
5. COC(=O)[C@H](CC(=O)O)Cc1ccc2ccccc2c1
6. c1ccc(CC(=NNc2ccccc2)/C(Cc2ccccc2)=N\Nc2ccccc2)cc1
7. Brc1ccc(Oc2cc(Br)c(Br)cc2Br)c(Br)c1

Return:
1: 177; 2: 172; 3: 183; 4: 128; 5: 64.7; 6: 181; 7: 82

----------
measurement.type: melting point

Use the examples below as a reference point.
{"columns": ["compound", "melting point"],
 "data": [
  ["O=C1C=C(NCCCc2ccccc2)C(=O)c2ccccc21", "116 °C"],
  ["CCCC1CC(C(=O)NC(C(C)O)C2OC(SC)C(O)C(O)C2O)N(C)C1 (stereo unspecified)", "295 °C"],
  ["N#Cc1ccncc1Cl", "72.5 °C"],
  ["O=S(=O)(Cl)c1ccc(Oc2ccccc2Cl)cc1", "89 to 90 °C"]
]}

Record melting point per entry; entries follow.
1. FC(F)(F)c1cc(Cl)c(Cl)c(Cl)c1
2. CC1(C)C=C(C(=O)O)C(C)(C)N1O
3. N#Cc1cc(F)ccc1F
4. COC(CCNC1=CC(=O)c2ccccc2C1=O)OC
5. O=S1(=O)C=Cc2ccccc21

Return:
1. -10 to -8 °C
2. 202 °C
3. 33 to 35 °C
4. 114 °C
5. 138 to 142 °C

I have 7 compounds here; please give me melting point for each one.
1. S=C=Nc1ccccc1N=C=S
2. O=[N+]([O-])c1cc(Cl)ccc1S(=O)(=O)c1ccccc1
3. c1ccc(C2OC2c2ccccc2)cc1 (stereo unspecified)
4. CN1CCN(Cc2ccccc2I)CC1
5. N#CC1C(=S)NC2(C(=O)Nc3ccccc32)C2=C1CCC2 (stereo unspecified)
6. CN(C)c1ccc(N=C2C=CC(=O)C=C2)cc1
7. NCCc1ccc(O)cc1

Return:
56 to 58 °C
115 to 117 °C
67 to 70 °C
37 to 38 °C
311 °C
134 °C
164 °C
